B1: SNX8 (parent)
chain: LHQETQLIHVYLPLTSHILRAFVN

variants of: B1; assay: protein stability index of a GFP-peptide fusion (GPS, HEK-293T) (PSI 1-6); higher = more stable; conditions: c terminus: a fixed tail appended;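 note: lentivirally expressed fusions sorted by FACS into six bins by GFP to DsRed ratio, PSI derived from sequencing read proportions per bin multiplied by bin number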
If the reported protein stability index equals or exceeds 2, assign 1. If not, assign 0.

LHQETRLIHVYLPLTSHILRAFVN: 1
LHQETQLVHVYLPLTSHILRAFVN: 0
LHQETQLIHVYLPLTSHILRMFVN: 1
LHQEMQLIHVYLPLTSHILRAFVN: 1
LHQETQLIHVYLPLTSHIGRAFVN: 1

INPUT: Exam item: decide whether the reported protein stability index for "LHQETQLIKVYLPLTSHILRAFVN" is at least 2.
OUTPUT: 0

INPUT: Now consider "LHQEYQLIHVYLPLTSHILRAFVN" .
OUTPUT: 0

INPUT: Follow-up item: "LHQETQLIHVYLPLTSHILRAPVN"
OUTPUT: 1

INPUT: Repeat with "LHQETQLIHVYLPLTSHILMAFVN"
OUTPUT: 1

INPUT: Cool, now "LHQETQLIHVYLPLTSHILRAMVN"
OUTPUT: 0

INPUT: Also "LHQETQLIHVYTPLTSHILRAFVN" ?
OUTPUT: 1

INPUT: Now give it for "LHQETQLINVYLPLTSHILRAFVN" too.
OUTPUT: 1

INPUT: And the next one, "LHQETQLIHVYLPLTSHIWRAFVN" ?
OUTPUT: 0
